This collection of values is drawn from patent US20250019377A1.

For each entry below, report its IC50 value.
Molecular target: K-Ras WT (Homo sapiens)
Experiment: biochemical
Report as a plain number; the unit nM is understood.

Note to self: IC50 recorded for C#Cc1c(F)ccc2cc(O)cc(-c3ncc4c(N5CCCO[C@H](C)C5)nc(OC[C@@]56CCCN5C[C@H](F)C6)nc4c3F)c12 (single isomer, unassigned) was 36.4

Lookup result for C#Cc1c(F)ccc2cc(O)cc(-c3ncc4c(N5CCCO[C@@H](CC#N)C5)nc(OC[C@@]56CCCN5C[C@H](F)C6)nc4c3F)c12 (single isomer, unassigned) [Compound 15B] ; measured IC50: 173

Given item C#Cc1c(F)ccc2cc(O)cc(-c3ncc4c(N5CCOC[C@H](C)C5)nc(OC[C@@]56CCCN5C[C@H](F)C6)nc4c3F)c12 (single isomer, unassigned) [Compound 13B] , the value recorded as its IC50 is 14.2

Please fill in: IC50 reported for C#Cc1c(F)ccc2cc(O)cc(-c3ncc4c(N5CCCOCC5)nc(OCC56CCCN5C[C@](C)(F)C6)nc4c3F)c12 (single isomer, unassigned) [Compound 32B] = 77.4

###

Molecular target: K-Ras G13D (Homo sapiens, UniProt P01116, G13D)
Sequence (P01116 1-169 isoform P01116-2 G13D): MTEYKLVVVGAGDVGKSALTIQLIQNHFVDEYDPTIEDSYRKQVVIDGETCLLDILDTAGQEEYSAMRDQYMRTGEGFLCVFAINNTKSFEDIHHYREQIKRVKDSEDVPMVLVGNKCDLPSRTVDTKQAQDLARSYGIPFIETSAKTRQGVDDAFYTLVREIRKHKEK
Assay: biochemical
Value Type: IC50

// sample C#Cc1c(F)ccc2cc(O)cc(-c3ncc4c(N5CCC6CC5CO6)nc(OC[C@@]56CCCN5C[C@H](F)C6)nc4c3F)c12 (stereo partly drawn) [Compound 93] , its IC50 was > 200 nM

IC50 measured on C#Cc1c(F)ccc2cc(O)cc(-c3ncc4c(N5CCCOCC5)nc(OCC5CN(C(=O)C=C)CCN5C)nc4c3F)c12 (stereo not drawn) [Compound 98] = > 200 nM

For reference, reported IC50 for C#Cc1c(F)ccc2cc(O)cc(-c3ncc4c(N5CCCOCC5)nc(OCC5CC6CCN5CC6)nc4c3F)c12 (stereo not drawn) [Compound 99] stands at > 100 nM

###

Molecular target: K-Ras WT (Homo sapiens, UniProt P01116)
Sequence (P01116 1-169 isoform P01116-2): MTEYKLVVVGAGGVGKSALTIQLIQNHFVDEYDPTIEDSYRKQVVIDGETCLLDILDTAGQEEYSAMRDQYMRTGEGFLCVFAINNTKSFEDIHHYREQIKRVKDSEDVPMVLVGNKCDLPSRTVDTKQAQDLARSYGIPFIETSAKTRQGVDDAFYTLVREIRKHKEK
Test: biochemical
Task for the reader: assign each of the following compounds its reported pIC50.
Just the number, please; pIC50 means minus log10 of the concentration in mol/L.

Recorded result, C#Cc1c(F)ccc2cc(O)cc(-c3ncc4c(N5CCOC[C@@H](F)C5)nc(OC[C@@]56CCCN5C[C@H](F)C6)nc4c3F)c12 (single isomer, unassigned) [Compound 12A] , pIC50: 6.98

// C#Cc1c(F)ccc2cc(O)cc(-c3ncc4c(N5CCOCC(C)(F)C5)nc(OC[C@@]56CCCN5C[C@H](F)C6)nc4c3F)c12 (stereo partly drawn) [Compound 101] : pIC50 value = 6.71

Measured pIC50, C#Cc1c(F)ccc2cc(O)cc(-c3ncc4c(N5CCOC[C@H](O)C5)nc(OC[C@@]56CCCN5C[C@H](F)C6)nc4c3F)c12 (single isomer, unassigned) [Compound 46A] : 6.40

###

System: AsPC-1 cells (K-Ras G12D)
Assay: 2D cell growth inhibition assay, AsPC-1
Type: cell-based
Settings: Homo sapiens, ASPC1, 144 h, AsPC-1, K-Ras G12D, 6 days, absolute IC50
Label 1 when IC50 < 400 nM; otherwise -1.

Ask: Confirm or reject: IC50 of C#Cc1c(F)ccc2cc(O)cc(-c3ncc4c(N5CCOC[C@H](C)C5)nc(OC[C@@]56CCCN5C[C@H](F)C6)nc4c3F)c12 (single isomer, unassigned) [Compound 13B] lies strictly below 400 nM
Result: 1

Ask: Field: below-cutoff. Rule: recorded IC50 strictly less than 400 nM. Subject: C#Cc1c(F)ccc2cc(O)cc(-c3ncc4c(N5CCOCC(C)(F)C5)nc(OC[C@@]56CCCN5C[C@H](F)C6)nc4c3F)c12 (stereo partly shown)
Result: 1

Ask: Could you please tell me whether IC50 recorded for C#Cc1c(F)ccc2cc(O)cc(-c3nc(O)c4c(N5CCCOCC5)nc(OC[C@@]56CCCN5C[C@H](F)C6)nc4c3F)c12 is less than 400 nM?
Result: -1

Ask: Below 400 nM on IC50? Entry C#Cc1c(F)ccc2cc(O)cc(-c3ncc4c(N5CCCOC[C@H]5C)nc(OC[C@@]56CCCN5C[C@H](F)C6)nc4c3F)c12 (single isomer, unassigned) [Compound 16B]
Result: 1

Ask: Determine whether this molecule shows IC50 lower than 400 nM (ties excluded): C#Cc1c(F)ccc2cc(O)cc(-c3ncc4c(N5CCOCC(=C)C5)nc(OC[C@@]56CCCN5C[C@H](F)C6)nc4c3F)c12
Result: 1

Ask: Does this molecule meet the criterion IC50 < 400 nM? C#Cc1c(F)ccc2cc(O)cc(-c3ncc4c(N5CCOCCC56CC6)nc(OC[C@@]56CCCN5C[C@H](F)C6)nc4c3F)c12
Result: -1

Ask: Hello, I'm reviewing records and need to know if IC50 of C#Cc1c(F)ccc2cc(O)cc(-c3ncc4c(N5CCCOCC5)nc(OCC56CCCN5CC(F)(F)C6)nc4c3F)c12 (stereo not shown) is below 400 nM. Could you check?
Result: -1

Ask: Threshold test, IC50 < 400 nM: C#Cc1c(F)ccc2cc(O)cc(-c3ncc4c(N5CC(F)(F)COCC5C)nc(OC[C@@]56CCCN5C[C@H](F)C6)nc4c3F)c12 (stereo partly shown)
Result: 1

Ask: Please check: IC50 for C#Cc1c(F)ccc2cc(O)cc(-c3ncc4c(N5CCOC[C@H](O)C5)nc(OC[C@@]56CCCN5C[C@H](F)C6)nc4c3F)c12 (single isomer, unassigned) [Compound 46A] , strictly under 400 nM or not?
Result: -1

Ask: Criterion: IC50 strictly below 400 nM. Is it met by C#Cc1c(F)ccc2cc(O)cc(-c3ncc4c(N5CCCOCC5)nc(OC[C@@]56CCCN5C[C@H](F)C6)nc4c3F)c12 ?
Result: 1

Ask: Does this molecule meet the criterion IC50 < 400 nM? C#Cc1c(F)ccc2cccc(-c3ncc4c(N5CCCOC6CC65)nc(OC[C@@]56CCCN5C[C@H](F)C6)nc4c3F)c12 (stereo partly shown)
Result: 1

Ask: For this molecule, is IC50 lower than 400 nM? C#Cc1c(F)ccc2cc(O)cc(-c3ncc4c(N5CCCO[C@@H](CC#N)C5)nc(OC[C@@]56CCCN5C[C@H](F)C6)nc4c3F)c12 (single isomer, unassigned) [Compound 15B]
Result: -1

Ask: Regarding C#Cc1c(F)ccc2cc(O)cc(-c3ncc4c(N5CCCO[C@H](C)C5)nc(OC[C@@]56CCCN5C[C@H](F)C6)nc4c3F)c12 (single isomer, unassigned) , kindly confirm whether its IC50 is beneath 400 nM.
Result: 1
